meta.source: the supplement of paper PMC13380429

For each entry below, report its cell viability value.
tested on: HepG2; experiment: cell viability relative to DMSO; higher = less toxic; settings: 72 h; 100 nM
Unit % implied. Number only.

Field request: cell viability | item: Cc1cc(-c2nc(-c3ccc(OC(F)(F)F)cc3)no2)nn1Cc1ccnc(N2CCN(C3CC3)CC2)c1
20.8

Field request: cell viability | item: Nc1ccc(C(=O)Nc2cccc(-c3nc(N4CCOCC4)c4oc5ncccc5c4n3)c2)cn1
88.3

Field request: cell viability | item: CC/C(=C(\c1ccccc1)c1ccc(OCCN(C)C)cc1)c1ccccc1
105

Field request: cell viability | item: C/C(=C\CNc1ncnc2[nH]cnc12)CO
108

Field request: cell viability | item: CC(=O)[C@@]12O[C@](C)(c3ccccc3)O[C@@H]1C[C@H]1[C@@H]3CCC4=CC(=O)CC[C@]4(C)[C@H]3CC[C@@]12C [algestone-acetophenide]
102

Field request: cell viability | item: CCc1c(O)cc(O)c(C(=O)c2ccc(OCCN3CCOCC3)c(OC)c2)c1CC(=O)N(CCOC)CCOC
109

Field request: cell viability | item: CN1CCN2c3c(cccc31)[C@@H]1CN(CCCC(=O)c3ccc(F)cc3)CC[C@@H]12
103

Field request: cell viability | item: Nc1nc(NCCc2ccc(O)cc2)nc2nc(-c3ccco3)nn12
103
